// EC50 lookup, one value per entry
Molecular target: Ecdysone receptor (Bombyx mori)
Sequence (P49881 whole entry): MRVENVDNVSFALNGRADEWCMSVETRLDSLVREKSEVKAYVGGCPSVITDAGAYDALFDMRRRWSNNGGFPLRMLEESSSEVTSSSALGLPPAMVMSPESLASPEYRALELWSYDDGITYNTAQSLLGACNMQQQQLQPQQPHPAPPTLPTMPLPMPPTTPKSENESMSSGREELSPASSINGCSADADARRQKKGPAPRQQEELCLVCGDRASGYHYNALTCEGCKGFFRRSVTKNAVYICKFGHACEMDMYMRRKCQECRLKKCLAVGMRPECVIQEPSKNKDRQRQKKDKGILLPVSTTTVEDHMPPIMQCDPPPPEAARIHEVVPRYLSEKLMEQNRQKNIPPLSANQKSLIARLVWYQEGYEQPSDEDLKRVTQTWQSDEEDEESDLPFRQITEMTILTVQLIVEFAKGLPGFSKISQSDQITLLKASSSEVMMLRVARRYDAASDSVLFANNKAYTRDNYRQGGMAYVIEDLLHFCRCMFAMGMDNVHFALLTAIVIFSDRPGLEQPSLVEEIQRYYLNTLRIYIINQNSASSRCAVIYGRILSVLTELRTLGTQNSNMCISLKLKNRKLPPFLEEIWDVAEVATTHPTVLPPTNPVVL
Experiment: Agonist activity at ecdysone receptor in Bombyx mori Bm5 cells after 24 hr by luciferase reporter gene assay
reported-property: EC50 (nM)

INSERT INTO assay_data (compound, tested_system, reported_property, result_unit, result) VALUES
  ('CC(C)(C)N(NC(=O)c1cccc(Cl)c1)C(=O)c1ccccc1Cl', 'Ecdysone receptor (Bombyx mori)', 'EC50', 'nM', 155),
  ('CC(C)(C)N(NC(=O)c1ccc(Cl)cc1)C(=O)c1ccccc1Cl', 'Ecdysone receptor (Bombyx mori)', 'EC50', 'nM', 115),
  ('Cc1ccc(C(=O)NN(C(=O)c2ccccc2Cl)C(C)(C)C)cc1C', 'Ecdysone receptor (Bombyx mori)', 'EC50', 'nM', 87.1),
  ('COc1cccc(C(=O)NN(C(=O)c2cc(C)cc(C)c2)C(C)(C)C)c1', 'Ecdysone receptor (Bombyx mori)', 'EC50', 'nM', 66.1),
  ('Cc1cc(C)cc(C(=O)N(NC(=O)c2ccccc2)C(C)(C)C)c1', 'Ecdysone receptor (Bombyx mori)', 'EC50', 'nM', 69.2),
  ('CC(C)(C)N(NC(=O)c1ccc(Cl)cc1)C(=O)c1ccccc1 [HALOFENOZIDE]', 'Ecdysone receptor (Bombyx mori)', 'EC50', 'nM', 87.1);

###

Target: Ecdysone receptor (Drosophila melanogaster, UniProt P20153+P34021)
Sequence (P34021 whole entry): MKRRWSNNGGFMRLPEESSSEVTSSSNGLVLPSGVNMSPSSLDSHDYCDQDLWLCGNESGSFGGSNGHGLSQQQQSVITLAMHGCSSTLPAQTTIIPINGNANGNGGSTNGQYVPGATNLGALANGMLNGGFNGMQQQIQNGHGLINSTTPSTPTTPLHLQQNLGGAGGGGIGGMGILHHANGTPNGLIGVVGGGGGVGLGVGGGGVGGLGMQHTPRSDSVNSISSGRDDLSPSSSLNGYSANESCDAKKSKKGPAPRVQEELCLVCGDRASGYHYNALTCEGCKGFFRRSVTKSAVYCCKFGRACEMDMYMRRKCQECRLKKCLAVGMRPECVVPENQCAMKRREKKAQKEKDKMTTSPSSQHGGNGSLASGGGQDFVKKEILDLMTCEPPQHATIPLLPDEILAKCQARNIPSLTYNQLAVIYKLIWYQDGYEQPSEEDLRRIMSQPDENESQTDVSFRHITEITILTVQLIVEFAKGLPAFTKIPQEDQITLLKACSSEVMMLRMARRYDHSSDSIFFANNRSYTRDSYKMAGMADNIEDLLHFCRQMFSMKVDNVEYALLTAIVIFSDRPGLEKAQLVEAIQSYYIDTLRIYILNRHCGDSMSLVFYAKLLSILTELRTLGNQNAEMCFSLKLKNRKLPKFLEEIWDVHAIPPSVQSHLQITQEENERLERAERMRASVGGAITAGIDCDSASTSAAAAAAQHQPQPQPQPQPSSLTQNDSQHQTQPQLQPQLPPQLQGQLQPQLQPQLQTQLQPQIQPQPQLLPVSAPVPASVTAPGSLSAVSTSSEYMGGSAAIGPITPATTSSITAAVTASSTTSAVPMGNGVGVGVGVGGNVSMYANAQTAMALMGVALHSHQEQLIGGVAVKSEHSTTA
Sequence (P20153 whole entry): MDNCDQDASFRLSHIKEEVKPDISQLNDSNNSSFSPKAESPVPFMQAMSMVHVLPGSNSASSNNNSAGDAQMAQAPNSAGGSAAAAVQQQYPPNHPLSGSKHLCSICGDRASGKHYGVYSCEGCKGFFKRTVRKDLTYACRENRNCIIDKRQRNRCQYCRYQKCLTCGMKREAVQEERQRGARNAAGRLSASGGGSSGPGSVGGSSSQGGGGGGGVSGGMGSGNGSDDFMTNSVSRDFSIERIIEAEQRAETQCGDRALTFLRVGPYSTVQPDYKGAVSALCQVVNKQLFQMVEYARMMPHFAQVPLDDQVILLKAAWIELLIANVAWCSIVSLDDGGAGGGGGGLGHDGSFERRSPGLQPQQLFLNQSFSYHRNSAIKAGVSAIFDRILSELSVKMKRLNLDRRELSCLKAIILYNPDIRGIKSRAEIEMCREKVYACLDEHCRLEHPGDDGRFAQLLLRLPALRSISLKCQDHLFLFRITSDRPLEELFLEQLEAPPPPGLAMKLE
Test: Agonist activity at ecdysone receptor in Drosophila melanogaster S2 cells after 24 hr by luciferase reporter gene assay
Assay type: cell-based
reported-property: EC50 (µM)

INSERT INTO measurements (molecule, reported_property, result_unit, relation_operator, result) VALUES
  ('CC(C)(C)N(NC(=O)c1ccc(C#N)cc1)C(=O)c1ccccc1Cl', 'EC50', 'µM', '=', 93.3),
  ('Cc1cc(C)cc(C(=O)C2(NC(=O)c3ccc4c(c3C)CCCO4)CCCCC2)c1', 'EC50', 'µM', '>', 1.32),
  ('CCOc1cccc(C(=O)NN(C(=O)c2cc(C)cc(C)c2)C(C)(C)C)c1C', 'EC50', 'µM', '=', 12),
  ('CCc1ccc(C(=O)NN(C(=O)c2ccccc2)C(C)(C)C)cc1', 'EC50', 'µM', '=', 5.5),
  ('CC(C)(C)N(NC(=O)c1ccccc1)C(=O)c1ccccc1F', 'EC50', 'µM', '=', 72.4),
  ('CC(C)(C)N(NC(=O)c1ccccc1)C(=O)c1ccccc1Br', 'EC50', 'µM', '=', 81.3),
  ('CC(C)(C)N(NC(=O)c1ccc(F)cc1)C(=O)c1ccccc1Cl', 'EC50', 'µM', '=', 37.2),
  ('CC(C)(C)N(Cc1ccccc1)NC(=O)c1ccccc1', 'EC50', 'µM', '>', 100),
  ('CC(C)(C)N(NC(=O)c1ccccc1)C(=O)c1ccccc1Cl', 'EC50', 'µM', '=', 8.51),
  ('Cc1cccc(C(=O)NN(C(=O)c2ccccc2Cl)C(C)(C)C)c1', 'EC50', 'µM', '=', 107),
  ('Cc1ccc(C(=O)NN(C(=O)c2ccccc2Cl)C(C)(C)C)cc1', 'EC50', 'µM', '=', 3.24),
  ('CCCCCCC(=O)NN(C(=O)c1ccccc1Cl)C(C)(C)C', 'EC50', 'µM', '>', 100),
  ('Cc1ccc(C)c(C(=O)NN(C(=O)c2ccccc2Cl)C(C)(C)C)c1', 'EC50', 'µM', '=', 107),
  ('CC(C)(C)N(NC(=O)c1cccc(Cl)c1Cl)C(=O)c1ccccc1Cl', 'EC50', 'µM', '=', 7.76),
  ('CCc1ccc(C(=O)NN(C(=O)c2cc(C)cc(C)c2)C(C)(C)C)cc1 [TEBUFENOZIDE]', 'EC50', 'µM', '=', 6.61),
  ('CCc1ccc(C(=O)NC2(C(=O)c3cc(C)cc(C)c3)CCCCC2)cc1', 'EC50', 'µM', '>', 10);
